System: MALME-3M melanoma
Answer with one of the outcomes given here: label 1 = active, label 0 = inactive

Query block: Can you look up the reported call for CC(=O)OCC1OC([S-])C(OC(C)=O)C(OC(C)=O)C1OC(C)=O.CC[PH+](CC)CC.CC[PH+](CC)CC.[Au].[Au] (configuration not stated) for me?
Result block: label 1

Query block: Hi, do you know how CN1CCc2c(Sc3ccc(C(=O)NO)cc3)c3ccccc3n2C1 came out in this test?
Result block: label 0

Query block: Record request — test call for C#C[C@]1(O)CC[C@H]2[C@@H]3CC=C4c5sc(Nc6ccccc6)nc5CC[C@]4(C)[C@H]3CC[C@@]21C
Result block: label 0

Query block: Dear colleague, could you share the recorded outcome for CCN1C(=O)N(CC)C2C1NC(=S)N2/N=C/C=C/c1cccs1 (configuration not stated) when you have a moment?
Result block: label 0

Query block: // outcome(item) with item = COc1ccc(-n2cc(-c3ccc(Cl)c(Cl)c3)nc2SCc2cccc(C#N)c2)cc1
Result block: label 0

Query block: Field: outcome | Entry: CCOC(=O)N1CCN(C(=O)c2ccc(C(F)(F)F)nc2Nc2cc(Cl)ccc2C)CC1
Result block: label 0

Query block: Given O=C(Nc1ccc(Cl)cc1F)c1cc(Br)ccc1O , state the outcome it received in this test.
Result block: label 0

Query block: State the result this test recorded for CC(=O)O[C@@H]1C[C@]2(C(C)C)O[C@@]1(C)[C@@H]1CCC(C)=C1[C@@H]2OC(=O)/C=C/c1ccccc1 .
Result block: label 0

Query block: Write down the call the test reported for this compound. Item: Cc1c[n+](Cc2ccc3ccccc3c2)cn1Cc1ccc2ccccc2c1
Result block: label 0

Query block: Could you please tell me the result logged for O=C(N/N=C\c1cc(Br)ccc1O)c1ccncc1 in this assay?
Result block: label 0

Query block: Given Cc1[nH]n(-c2cccc(Cl)c2)c(=O)c1/C=C1\C=Nc2ccc(Br)cc21 , state the outcome it received in this test.
Result block: label 0

Query block: Name the outcome recorded for CCN(CC)CC(C)(C)C(=O)/C=C/c1ccc(Cl)c(Cl)c1 in the assay.
Result block: label 0

Query block: Dear colleague, could you share the recorded outcome for COC(=O)[C@@H](NC(=O)[C@@H](OC)[C@@H]1Cc2cc3cc(OC4CC(OC5CC(O)C(O)C(C)O5)C(O)C(C)O4)c(C)c(O)c3c(O)c2C(=O)[C@H]1OC1CC(OC2CC(OC3CC(C)(O)C(O)C(C)O3)C(O)C(C)O2)C(O)C(C)O1)C(C)C (some centres not stated) when you have a moment?
Result block: label 1

Query block: Record lookup: outcome of this test for COc1cc2cn3c4ccc(O)cc4[nH]c(=O)c3c2cc1OC ?
Result block: label 1

Query block: // outcome(item) with item = O=C(Nc1cccc(Cl)c1)c1cc2ccccc2cc1O
Result block: label 0

Query block: Could you check what this test reported for COc1ccc(-c2cc(-c3cccn3C)c(C#N)c(N)n2)cc1OC ?
Result block: label 0

Query block: For C=C1C(=O)O[C@H]2[C@H]1[C@@H](OC(=O)C=C(C)C)CC1=C[C@@H](C[C@@]3(C)O[C@@H]23)OC1=O , what call appears in the results of this test?
Result block: label 0

Where these numbers come from: PubChem BioAssay (NCI)
